# Experimental details: In-vivo radioactivity distribution experiment using normal mice (Example 2)
# Condition info: normal mice, intravenous, 2 min; Example 2 numbering
Quantity: In-vivo radioactivity distribution: lung

{"columns": ["Chem smiles", "Readout value"],
 "data": [
  ["CN(C)c1ccc(C(=O)/C=C/c2ccc(I)cc2)cc1", "6.02 (0.60) percent of the dose/g"],
  ["CNc1ccc(C(=O)/C=C/c2ccc(I)cc2)cc1", "11.10 (3.36) percent of the dose/g"],
  ["CN(C)c1ccc(C=CC(=O)c2ccc(I)s2)cc1", "8.29 (0.99) percent of the dose/g"],
  ["CNc1ccc(C=CC(=O)c2ccc(I)s2)cc1", "5.61 (1.33) percent of the dose/g"]
]}
